Below is a list of entries, each paired with its recorded Kd value.
# target: T1, mouse sclerostin (mouse)
# T1 chain: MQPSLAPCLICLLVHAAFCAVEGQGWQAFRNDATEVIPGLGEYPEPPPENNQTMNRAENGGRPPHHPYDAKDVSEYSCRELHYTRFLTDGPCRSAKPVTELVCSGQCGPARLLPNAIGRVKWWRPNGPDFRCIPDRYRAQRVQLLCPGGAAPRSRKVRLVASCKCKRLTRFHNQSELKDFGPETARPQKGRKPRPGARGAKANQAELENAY
# assay-comment: SPR, pH 5.8, 37C
Write it as a number; the unit pM goes unstated.

Kindly note the recorded Kd for mabA_NpH1 (antibody, V domains shown) VH: EVQLVQSGAEVKKPGASVKVSCKASGYTFTDYNMHWVRQAPGQGLEWMGEINPNSGGAGYNQKFKGRVTMTTDTSTSTAYMELRSLRSDDTAVYYCARLGYDDIYDDWYFHVWGQGTTVTVSS VL: DIQMTQSPSSLSASVGDRVTITCRASQDISNYLNWYQQKPGKAPKLLIYHTSRLLSGVPSRFSGSGSGTDFTLTISSLQPEDFATYYCQQGDTLPYTFGGGTKVEIK , which is 503

Entry mabA_pH3 (antibody, V domains shown) VH: EVQLVQSGAEVKKPGASVKVSCKASGYTFTDYNMHWVRQAPGQGLEWMGEINPHSGHAGYNQKFKGRVTMTTDTSTSTAYMELRSLRSDDTAVYYCARLHYDDIHDDWYFDVWGQGTTVTVSS VL: DIQMTQSPSSLSASVGDRVTITCRASHDISNYLNWYQQKPGKAPKLLIYYTSRLLSGVPSRFSGSGSGTDFTLTISSLQPEDFATYYCQQGDTLPYTFGGGTKVEIK , Kd reported as 1050

Quick note, Kd for mabA_NpH2 (antibody, V domains shown) VH: EVQLVQSGAEVKKPGASVKVSCKASGYTFTDYNMHWVRQAPGQGLEWMGEINPNSGGAGYNQKFKGRVTMTTDTSTSTAYMELRSLRSDDTAVYYCARLGYDDIYDDWYFDVWGQGTTVTVSS VL: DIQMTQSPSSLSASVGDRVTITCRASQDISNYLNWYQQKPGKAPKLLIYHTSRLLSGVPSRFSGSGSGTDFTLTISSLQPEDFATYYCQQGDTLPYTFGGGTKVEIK landed at 0.0168

In plain terms, mabA_pH2 (antibody, V domains shown) VH: EVQLVQSGAEVKKPGASVKVSCKASGYTFTDYNMHWVRQAPGQGLEWMGEINPNSGHAGYNQKFKGRVTMTTDTSTSTAYMELRSLRSDDTAVYYCARLHYDHIYDDWYFDVWGQGTTVTVSS VL: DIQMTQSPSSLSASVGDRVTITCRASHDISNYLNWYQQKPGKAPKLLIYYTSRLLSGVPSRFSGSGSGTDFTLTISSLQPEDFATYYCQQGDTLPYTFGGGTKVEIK has a documented Kd of 5430
